- assay.system: P2Y purinoceptor 6 (Homo sapiens)
- Sequence (Q15077 whole entry): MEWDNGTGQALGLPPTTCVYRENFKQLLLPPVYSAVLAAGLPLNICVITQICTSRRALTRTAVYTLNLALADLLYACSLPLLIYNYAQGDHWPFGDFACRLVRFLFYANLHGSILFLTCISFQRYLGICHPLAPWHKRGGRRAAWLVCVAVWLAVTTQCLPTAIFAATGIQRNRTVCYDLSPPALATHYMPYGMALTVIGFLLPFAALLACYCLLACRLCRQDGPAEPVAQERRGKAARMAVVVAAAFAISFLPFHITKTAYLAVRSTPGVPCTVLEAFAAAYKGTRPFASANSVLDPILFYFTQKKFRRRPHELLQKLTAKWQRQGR
- assay.text: Antagonist activity at human P2Y6 receptor transfected in human 1321N1 cells assessed as inhibition of UDP-activated intracellular calcium mobilization preincubated for 30 mins followed by UDP addition by fluo-4-dye based fluorescence assay
Simple rule here: IC50 less than 4 µM is Y, otherwise N.

Below are worked cases with known answers.
{"compound.structure": "Cc1ccc(Sc2ccc(Nc3cc(S(=O)(=O)O)c(N)c4c3C(=O)c3ccccc3C4=O)cc2)c(C)c1", "assay.system": "P2Y purinoceptor 6 (Homo sapiens)", "class": "N"}
{"compound.structure": "Cc1ccc(C)c(Sc2ccc(Nc3cc(S(=O)(=O)O)c(N)c4c3C(=O)c3ccccc3C4=O)cc2)c1", "assay.system": "P2Y purinoceptor 6 (Homo sapiens)", "class": "Y"}
{"compound.structure": "Cc1cc(Nc2cc(S(=O)(=O)O)c(N)c3c2C(=O)c2ccccc2C3=O)ccc1O", "assay.system": "P2Y purinoceptor 6 (Homo sapiens)", "class": "N"}
{"compound.structure": "Nc1c(S(=O)(=O)O)cc(Nc2ccc(SCc3cccnc3)cc2)c2c1C(=O)c1ccccc1C2=O", "assay.system": "P2Y purinoceptor 6 (Homo sapiens)", "class": "N"}
{"compound.structure": "Nc1c(S(=O)(=O)O)cc(Nc2ccccc2)c2c1C(=O)c1ccccc1C2=O", "assay.system": "P2Y purinoceptor 6 (Homo sapiens)", "class": "Y"}

Please find the next compound below.
Ask: Given the entry Cc1ccc(Sc2ccc(Nc3cc(S(=O)(=O)O)c(N)c4c3C(=O)c3ccccc3C4=O)cc2)cc1C , would its reported IC50 be below 4 µM?
Result: N
